Biological target: T1, CRF2R
T1 sequence (Q13324 whole entry, species assumed, looked up): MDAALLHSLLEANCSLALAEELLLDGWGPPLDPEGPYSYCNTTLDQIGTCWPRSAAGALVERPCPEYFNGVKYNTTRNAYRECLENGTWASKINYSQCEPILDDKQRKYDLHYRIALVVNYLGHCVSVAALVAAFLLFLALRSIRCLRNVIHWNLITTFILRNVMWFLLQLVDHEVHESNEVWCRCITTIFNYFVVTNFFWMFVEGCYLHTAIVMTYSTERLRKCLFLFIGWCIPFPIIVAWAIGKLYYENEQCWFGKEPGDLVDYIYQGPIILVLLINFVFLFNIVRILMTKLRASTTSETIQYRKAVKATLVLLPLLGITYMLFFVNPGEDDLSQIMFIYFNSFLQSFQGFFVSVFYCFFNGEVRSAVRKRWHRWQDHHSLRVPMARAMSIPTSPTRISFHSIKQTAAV
Assay: cell-based or functional assay
Ends that are not written are not given here.
API: label(entry) gives fulfilled if the entry's CRF2R EC50 is strictly smaller than 10 nM; on equality or larger values it gives not fulfilled.

>  <Binder>
IVLSLDVVIGLLQILLEQARARAAREQATTNARILARV-NH2 [SEQ ID NO 214]

>  <Category Label>
not fulfilled

$$$$
>  <Binder>
DNPSLSIDVPFFLLRTLLELEKTQSQRERAEQNARIFARV-NH2 [SEQ ID NO 386]

>  <Category Label>
fulfilled

$$$$
>  <Binder>
ZGPPISIDLPLHLLRKMIEIEKQEKEKQQATTNARLLDTV (C-terminal amide) [SEQ ID NO 238]

>  <Category Label>
not fulfilled

$$$$
>  <Binder>
NDDPPISIDLPLLLLRNMIEMARIENEREQAGLNAKYLAEV-NH2 [SEQ ID NO 268]

>  <Category Label>
not fulfilled

$$$$

Now, please, on to the next binder.
Q: Is the reported CRF2R EC50 for ZGPPISIDLPYWLLRKMIEIEKQEKEKQQAANNARLLARI (C-terminal amide) [SEQ ID NO 289] strictly below 10 nM?
Ans: not fulfilled
